# Test system: RAW 264.7 cells
# procedureSummary: Wash-out (duration of action) experiment, PGE2 production in LPS-stimulated RAW 264.7 cells
# Type: cell-based, rat
# measurementParameters: 2 hours at 50 times the IC50, washed 5 times, E. coli LPS stimulation, 24 hours
readoutLabel: PGE2 production (pg/mL)
The answer is to be given in pg/mL; state only the numeric part.

Retrieve PGE2 production measured for CCCC1O[C@@H]2C[C@H]3[C@@H]4CCC5=CC(=O)C=C[C@]5(C)[C@H]4[C@@H](O)C[C@]3(C)[C@]2(C(=O)CO)O1 (stereo partly shown) [Budesonide, budesonide, reference compound] and print it.
1339

Retrieve PGE2 production measured for CCC=CCC=CCC=CCC=CCC=CCCCCCC(=O)OCC(=O)C12OC(CCC)OC1CC1C3CCC4=CC(=O)C=CC4(C)C3C(O)CC12C (stereo not shown) and print it.
622

Retrieve PGE2 production measured for CCC=CCC=CCC=CCC=CCC=CCCCC(=O)OCC(=O)C12OC(CCC)OC1CC1C3CCC4=CC(=O)C=CC4(C)C3C(O)CC12C (stereo not shown) and print it.
576

Retrieve PGE2 production measured for CCC=CCC=CCC=CCC=CCC=CCC=CCCC(=O)OCC(=O)C12OC(CCC)OC1CC1C3CCC4=CC(=O)C=CC4(C)C3C(O)CC12C (stereo not shown) [Docosahexaenoic acid ester of budesonide, docosahexaenoic acid ester of budesonide] and print it.
892

This collection of values is drawn from patent US7390796B2.
